- System: NCI/ADR-RES
- assay.text: NCI tumour cell line growth inhibition, 48 h
The source made the active and inactive calls. No stated cut-off is given here; in the data, active = GI50 up to about 1.1 µM and inactive = higher.
The categories you may choose from are yes (1) = active, no (0) = inactive

# count of solved cases: 3
[[record]]
compound = "Cc1c2ccccc2cc2nc3ccccc3n12"
discrete_label = "no (0)"

[[record]]
compound = "COc1cc(/C=C/C(=O)Oc2ccc(NC(C)=O)cc2)ccc1C(=O)OCc1ccccc1"
discrete_label = "no (0)"

[[record]]
compound = "CN1CCCC(C(=O)OCC(=O)C2(O)CCC3C4CCC5=CC(=O)CCC5(C)C4C(O)CC32C)C1 (centres undefined)"
discrete_label = "no (0)"


Query :: // return assay outcome for CC(=O)OCC1OC(n2c3c(cc(C#N)c2=S)CCCCCC3)C(OC(C)=O)C(OC(C)=O)C1OC(C)=O (centres undefined)
Result :: no (0)

Query :: // return assay outcome for "O=C1NCc2ccccc2S(=O)(=O)n2cccc21"
Result :: no (0)

Query :: // return assay outcome for Fc1cccc(F)c1C1SCc2nc3cc(Cl)ccc3n21 (centres undefined)
Result :: no (0)

Query :: // return assay outcome for "COc1ccc(/N=[N+](\[O-])c2ccc(OC)cc2)cc1"
Result :: no (0)

###

- System: UACC-257
- assay.text: NCI tumour cell line growth inhibition, 48 h
Activity calls are given as the source filed them. Rule as the data show it: active = GI50 up to about 1.1 µM and inactive = higher.
reported.endpoint: GI50

Examples from the recorded data:
[[record]]
molecule = "O=C1c2ccccc2C2=Cc3ccccc3C(O)N12 (stereo unspecified)"
target_or_system = "UACC-257"
value_observed = "> 100 µM (inactive)"

[[record]]
molecule = "CCOC(=O)N1CCc2cc(OC)c(OC)c3c2C1CC3=O (stereo unspecified)"
target_or_system = "UACC-257"
value_observed = "> 100 µM (inactive)"

[[record]]
molecule = "C=C/C=C/NC(=O)OCc1ccccc1"
target_or_system = "UACC-257"
value_observed = "> 100 µM (inactive)"

[[record]]
molecule = "CCOC(=O)C1(C(=O)OCC)[C@H](c2ccccc2)C2=NO[C@@H]3CCC[C@H]1[C@H]23"
target_or_system = "UACC-257"
value_observed = "31.6 µM (inactive)"

[[record]]
molecule = "[N-]=[N+]=NCc1cccc(Nc2cc(=O)[nH]c(=O)[nH]2)c1"
target_or_system = "UACC-257"
value_observed = "30.8 µM (inactive)"

[[record]]
molecule = "Cc1cc(O)nc2c3c(ccc12)OC(C)(C)C=C3"
target_or_system = "UACC-257"
value_observed = "> 25.3 µM (inactive)"


Below are some molecules; for each one, tell me its GI50.
1. C=CC[C@H]1C[C@@]2(C)OC[C@H](C(C)C)N2C1=O
2. CN(C)NC1=NS(=O)(=O)c2cc3c(cc2S1)N(N(C)C)C(=O)c1cc2c(cc1N(N(C)C)C3=O)SC(NN(C)C)=NS2(=O)=O
3. O=c1c(-c2ccccc2F)coc2cc(F)ccc12
4. CC(=O)OC[C@]1(C(=O)C(O)c2ccoc2)[C@H](C)CC[C@@]23COC(=O)C2=CCC[C@@H]31 (stereo partly specified)

Result ::
1. > 100 µM (inactive)
2. > 10 µM (inactive)
3. > 100 µM (inactive)
4. > 10 µM (inactive)

Measured GI50, "Cc1ccc(S(=O)(=O)NC(=O)Nc2nc(Cl)cc(Cl)n2)cc1" : 19.2 µM (inactive)
